- Assayed target: FLT3 (D835Y) (Homo sapiens, UniProt P36888, D835Y)
- Assay overview: KINOMEscan Kd, specific screen against FLT3 mutants
Property label: Kd (nM)
Express the result in nM but write the number alone.

[ask] Return the recorded Kd value; entry: CC(C)n1c(C2CCNCC2)nc2c([N+](=O)[O-])c(Br)c(Br)cc21
[reply] 16

* * *

- Assay overview: Metabolic stability, liver microsomes
- Type: in vitro ADME
- Assay setup: Mouse, 37 °C, read-out: Liver microsomes t1/2 (converted)
Property label: half-life at 1 µM
Param answer (str): number followed by unit.

[ask] Dear colleague, please send me the reported half-life at 1 µM for CC(C)n1c(C2CCNCC2)nc2c([N+](=O)[O-])c(Br)c(Br)cc21 when you can.
[reply] 7.2 h
